run description: MM1S cell viability effects, profiling panel, calcein-AM fluorescence, 48 h, basal (AID 1165);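 note: viability of MM1S multiple myeloma cells under basal unstimulated conditions; test concentration not given here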
condition context: higher = more signal
Mark Condition not met for z-score values under 0.3, and Condition met for everything at or above.

# chemical smiles, answer label
data = [
    ("COc1ccc(C(=O)Nc2ccc(CN3C(=O)[C@@]4(O[C@@H](CCn5cc([C@H](O)c6ccccc6)nn5)[C@H]([Si](C)(C)c5ccc(OC)cc5)[C@H]4C)c4ccccc43)cc2)cc1", "Condition not met"),
    ("COc1ccc([Si](C)(C)[C@H]2[C@H](CCn3cc([C@H](O)c4ccccc4)nn3)O[C@@]3(C(=O)N(Cc4cccc(N5CCOC5=O)c4)c4ccccc43)[C@@H]2C)cc1", "Condition not met"),
    ("C[C@]1(C(=O)NC2CC2)c2ccccc2C(=O)N(Cc2cc(C(F)(F)F)cc(C(F)(F)F)c2)[C@H]1c1ccc(CO)cc1", "Condition not met"),
    ("C[N+](C)(C)CCCC[C@@H]1NC(=O)[C@@H]2C[C@H](C(=O)NCCCCCN)[C@H](c3cccc(OCCO)c3)N2C1=O", "Condition met"),
    ("COC(=O)[C@@]1(Cc2ccc(OC)cc2)[C@H]2c3cc(C(=O)N(C)C)n(CCN4CNCC4=O)c3C[C@H]2CN1C(=O)c1ccccc1", "Condition met"),
]

* * *

measured target: Neurogenic locus notch homolog protein 3 (Homo sapiens) (UniProt Q9UM47)
Sequence (Q9UM47 whole entry, looked up): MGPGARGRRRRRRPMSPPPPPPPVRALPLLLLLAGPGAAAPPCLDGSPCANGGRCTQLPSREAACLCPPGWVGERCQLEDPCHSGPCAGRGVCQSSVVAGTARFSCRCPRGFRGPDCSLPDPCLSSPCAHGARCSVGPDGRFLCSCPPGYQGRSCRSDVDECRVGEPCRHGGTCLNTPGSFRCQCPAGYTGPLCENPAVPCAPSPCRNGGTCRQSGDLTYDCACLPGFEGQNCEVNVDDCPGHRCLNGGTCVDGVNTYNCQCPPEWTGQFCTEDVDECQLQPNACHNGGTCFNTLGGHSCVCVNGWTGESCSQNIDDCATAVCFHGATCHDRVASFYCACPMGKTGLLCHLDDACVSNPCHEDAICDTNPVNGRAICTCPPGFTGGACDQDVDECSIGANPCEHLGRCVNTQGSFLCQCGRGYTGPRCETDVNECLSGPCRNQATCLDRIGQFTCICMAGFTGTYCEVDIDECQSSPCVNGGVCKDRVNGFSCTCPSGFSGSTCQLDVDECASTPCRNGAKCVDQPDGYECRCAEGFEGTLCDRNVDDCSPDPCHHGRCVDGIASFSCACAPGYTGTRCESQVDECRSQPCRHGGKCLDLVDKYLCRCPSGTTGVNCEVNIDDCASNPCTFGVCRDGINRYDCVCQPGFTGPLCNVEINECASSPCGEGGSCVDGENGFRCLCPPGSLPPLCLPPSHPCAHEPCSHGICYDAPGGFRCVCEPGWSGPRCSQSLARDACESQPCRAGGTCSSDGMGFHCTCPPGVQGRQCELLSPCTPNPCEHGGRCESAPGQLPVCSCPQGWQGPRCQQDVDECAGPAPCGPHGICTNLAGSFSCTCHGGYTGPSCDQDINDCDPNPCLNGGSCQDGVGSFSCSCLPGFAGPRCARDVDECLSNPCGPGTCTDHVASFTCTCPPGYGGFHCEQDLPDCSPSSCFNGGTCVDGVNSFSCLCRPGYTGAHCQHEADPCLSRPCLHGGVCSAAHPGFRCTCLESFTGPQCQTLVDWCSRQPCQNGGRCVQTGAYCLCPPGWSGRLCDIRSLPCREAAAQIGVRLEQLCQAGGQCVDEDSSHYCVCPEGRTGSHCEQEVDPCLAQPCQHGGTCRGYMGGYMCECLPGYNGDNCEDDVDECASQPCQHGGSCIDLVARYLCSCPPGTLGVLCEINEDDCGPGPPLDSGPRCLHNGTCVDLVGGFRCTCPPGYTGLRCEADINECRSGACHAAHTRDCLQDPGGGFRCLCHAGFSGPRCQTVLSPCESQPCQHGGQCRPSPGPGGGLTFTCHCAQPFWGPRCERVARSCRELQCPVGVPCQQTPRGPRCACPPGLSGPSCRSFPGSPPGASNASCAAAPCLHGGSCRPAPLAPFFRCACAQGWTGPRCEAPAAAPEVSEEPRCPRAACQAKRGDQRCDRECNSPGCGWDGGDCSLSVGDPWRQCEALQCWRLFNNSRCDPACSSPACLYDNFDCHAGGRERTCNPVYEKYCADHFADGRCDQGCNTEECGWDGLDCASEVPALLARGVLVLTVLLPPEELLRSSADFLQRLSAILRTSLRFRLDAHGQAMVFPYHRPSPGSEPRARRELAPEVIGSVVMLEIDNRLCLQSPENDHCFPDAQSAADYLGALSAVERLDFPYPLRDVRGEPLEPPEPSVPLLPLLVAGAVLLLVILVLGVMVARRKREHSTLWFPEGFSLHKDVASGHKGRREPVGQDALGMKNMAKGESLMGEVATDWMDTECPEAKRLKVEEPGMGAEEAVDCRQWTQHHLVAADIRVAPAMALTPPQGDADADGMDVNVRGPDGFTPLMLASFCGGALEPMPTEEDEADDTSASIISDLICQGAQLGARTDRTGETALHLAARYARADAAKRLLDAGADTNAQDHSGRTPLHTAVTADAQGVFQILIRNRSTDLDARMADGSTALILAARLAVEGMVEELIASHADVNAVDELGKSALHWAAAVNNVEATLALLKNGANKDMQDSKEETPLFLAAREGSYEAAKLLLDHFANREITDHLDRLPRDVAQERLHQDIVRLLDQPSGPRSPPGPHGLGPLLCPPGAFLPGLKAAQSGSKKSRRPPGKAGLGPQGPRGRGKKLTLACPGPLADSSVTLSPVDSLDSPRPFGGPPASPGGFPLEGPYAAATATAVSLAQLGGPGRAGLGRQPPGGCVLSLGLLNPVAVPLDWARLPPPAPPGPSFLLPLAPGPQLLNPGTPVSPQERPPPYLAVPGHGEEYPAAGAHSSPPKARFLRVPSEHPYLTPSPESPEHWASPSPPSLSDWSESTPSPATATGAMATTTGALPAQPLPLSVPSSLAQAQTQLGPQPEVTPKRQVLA
run description: NOTCH3 binders on small-molecule microarray, primary screen, biochemical, 635/667 nm fluorescence (AID 1096)
condition context: NOTCH3 binding, 635 nm fluorescence, higher = more signal

# compound, composite z-score
data = [
    ("CCOC(=O)C[C@H]1[C@H](OC(=O)c2ccc(C(=O)c3ccccc3)cc2)[C@@H](NC(=O)c2ccc(-c3ccccc3)cc2)c2cc(OCCCO)ccc2N1C(=O)c1ccccc1", 1.03),
    ("O=C1C2C=CC(C(O)c3c(F)cccc3Cl)N(Nc3ccccc3)C2C(=O)N1c1ccccc1 (centres undefined)", 1.04),
    ("CCCCCC1=C2CNC(CCC)(C(=O)OC)C=C2C(C)C1=O (centres undefined)", 0.358),
    ("CCOC(=O)[C@H]1C/C=C/C[C@H](C(=O)OCC)C(=O)O[C@H]2[C@@H](OC)O[C@H](CO)[C@@H](OC(=O)Nc3ccc(C#N)cc3)[C@@H]2OC1=O", 0.466),
    ("COCC(=C=CC[C@H](O)c1ccccc1OCCO)C[C@H](O)c1cc(Cl)cc(Cl)c1O", 1.03),
    ("CC(C)(C)OC(=O)CC[C@@]12N=C(c3ccc(OCCCO)cc3)O[C@@H]1c1ccccc1N(CCS(=O)(=O)c1ccccc1)C2=O", 0.784),
    ("[N-]=[N+]=NCc1ccccc1[C@@H]1OC(c2ccc(OCCCO)cc2)=N[C@]1(Cc1ccccc1N=[N+]=[N-])C(=O)N1CCOCC1", 1.04),
    ("O=C1OCCC/C=C\\[C@H]2OC34C=CCN(c5ccc6ccccc6c5)C(=O)[C@H]3N(CCCCCCO)C(=O)[C@@H]4C12 (some centres undefined)", 0.086),
    ("CN1C(=O)C2C=CC(C(O)c3cc(C(F)(F)F)cc(C(F)(F)F)c3)N(N3CCCCC3)C2C1=O (centres undefined)", 0.688),
    ("C=C/C=C/[C@H]1C(=C)CN([C@@H](Cc2ccccc2)C(=O)OC)[C@@H]1[C@H](O)Cc1ccccc1", -0.0424),
    ("COCCOC(=O)N1C(=O)[C@@]2(c3ccccc31)[C@H](c1ccc(O)cc1)N1[C@H](c3ccccc3)[C@H](c3ccccc3)OC(=O)[C@H]1[C@@H]2C(=O)NC[C@H](O)c1ccccc1", 0.669),
    ("Cc1ccc(S[C@]2(C(=O)NCCN3CCOCC3)CC(=O)N(Cc3ccccc3Cl)[C@@H]2c2ccc(CO)cc2)cc1", 0.201),
    ("COCCOC(=O)N1C(=O)[C@@]2(c3cc(C#CCCO)ccc31)[C@H](C(=O)Nc1nc3ccccc3s1)[C@H]1C(=O)O[C@H](c3ccccc3)[C@H](c3ccccc3)N1[C@@H]2c1ccc(OCCO)cc1", 1.1),
    ("C=C(COC)/C(=C/C[C@@H](OC(C)=O)c1ccc(OCCO)cc1)c1cc(C(=O)OC)ccc1OC", 1.12),
    ("CN1C(=O)C2C=CC(C(O)c3ccc(-c4ccccc4)s3)N(N(c3ccccc3)c3ccccc3)C2C1=O (centres undefined)", 1.12),
    ("CCCCCCC#C[Si](O[C@H](c1ccccc1)c1cn([C@H](CO)Cc2ccccc2)nn1)(C(C)C)C(C)C", -0.0029),
    ("COc1cc(OC)c(C(O)C2C=CC3C(=O)NC(=O)C3N2Nc2ccc(Cl)cc2Cl)cc1Br (centres undefined)", 0.541),
    ("CN1C(=O)C2C=CC(C(O)c3ccccc3)N(Nc3ccccc3)C2C1=O (centres undefined)", -0.557),
    ("CCCC=C(CCC)[C@@H](NS(=O)(=O)c1cccs1)c1ccc(C(=O)OC)cc1", 0.882),
    ("COCCOC(=O)N1C(=O)[C@@]2(c3cc(C#CCCO)ccc31)[C@H](c1ccc(OCCO)cc1)N1[C@H](c3ccccc3)[C@H](c3ccccc3)OC(=O)[C@H]1[C@@H]2C(=O)N1CCN(c2ncccn2)CC1", 1.06),
    ("COc1ccc(C(O)C2C=CC3C(=O)N(c4ccccc4)C(=O)C3N2Nc2ccccc2F)cc1OCc1ccccc1 (centres undefined)", 0.386),
    ("O=C(C1N=C(c2ccc(OCCCO)cc2)N(c2ccccc2)O1)N1CCOCC1 (centres undefined)", 1.09),
    ("O=C1c2ccccc2[C@](Cc2ccccc2I)(C(=O)NC2CC2)[C@H](c2ccc(CO)cc2)N1C1CCCCC1", 1.05),
    ("COCCOC(=O)N1C(=O)[C@@]2(c3cc(C#CC4=CCCCC4)ccc31)[C@H](C(=O)Nc1nc3ccccc3s1)[C@H]1C(=O)O[C@H](c3ccccc3)[C@H](c3ccccc3)N1[C@@H]2c1ccccc1OCCO", 1.07),
    ("C=CC[C@]12N=C(c3ccc(OCCCO)cc3)O[C@H]1c1ccccc1N(Cc1ccccc1)C2=O", 0.483),
    ("C=CCNC(=O)[C@H]1[C@@H]2C(=O)O[C@@H](c3ccccc3)[C@@H](c3ccccc3)N2[C@@H](c2ccc(OCCO)cc2)[C@]12C(=O)Nc1ccc(C#CC3=CCCCC3)cc12", 1.15),
    ("CCOC(=O)C1=CCC(c2ccc(C)cc2)N(S(=O)(=O)c2ccc(C)cc2)C1 (centres undefined)", 0.234),
    ("COC(=O)[C@@]1(Cc2ccc(F)cc2)[C@@H]2[C@@H](CC(=O)[C@H]2CC(=O)C(=O)N(C)C)CN1C(=O)c1ccccc1", 1.08),
    ("O=C1O[C@H](c2ccccc2)[C@H](c2ccccc2)N2[C@H]1[C@@H](C(=O)Nc1nc3ccccc3s1)[C@]1(C(=O)Nc3ccc(C#CC4(O)CCCCCC4)cc31)[C@H]2c1ccc(OCCO)cc1", 1.02),
]

* * *

run description: A549 lung cancer cell viability effects, profiling panel, resazurin fluorescence, 24 h, PK04 Diversity Set (AID 1171); note: test concentration not given here
condition context: higher = more signal, called active from +8 up or from −8 down

# chemical smiles, z-score
records = [
    ("CCCC[C@@H]1C[C@H]1[C@@H](NC(=O)c1ccco1)c1ccc(C(=O)OC)cc1", -0.136),
    ("O=C(NCC(F)(F)F)[C@@H]1c2ccccc2C(=O)N(C2CCCCC2)[C@H]1c1ccc(CO)cc1", 1.21),
    ("Cc1ccc(S[C@]2(C(=O)NCCN3CCOCC3)CC(=O)N(Cc3ccccc3)[C@@H]2c2ccc(CO)cc2I)cc1", 0.394),
    ("CCOC(=O)C[C@H]1[C@H](OC(=O)Cc2ccc3c(c2)OCO3)[C@@H](NC(=O)c2ccc(-c3ccccc3)cc2)c2cc(OCCCO)ccc2N1C(=O)Cc1ccc(OC)cc1", -0.0841),
    ("COCCCNC(=O)[C@@]1(Cc2ccccc2)N=C(c2ccc(OCCCO)cc2)O[C@H]1c1ccccc1", 1.57),
    ("CCCC[C@H]1OB(O)C[C@H]2C1=C(COc1ccccc1)C[C@H]1C(=O)N(C)C(=O)[C@H]12", -0.166),
    ("C[C@@]1([C@@H](NC(=O)c2ccccc2)c2ccc(-c3ccccc3)cc2)C[C@H]1C1CCCCC1", -1.2),
    ("C=CC[C@@]1(C(=O)N(C)C)N=C(c2ccc(OCCCO)cc2)O[C@@H]1c1ccccc1N=[N+]=[N-]", -1.48),
]

* * *

measured target: Alpha-bungarotoxin (Bungarus multicinctus) (UniProt P60615)
Sequence (P60615 whole entry, looked up): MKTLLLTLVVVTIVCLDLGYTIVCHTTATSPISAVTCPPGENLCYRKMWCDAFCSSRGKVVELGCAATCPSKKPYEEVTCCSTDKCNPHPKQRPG
run description: alpha-bungarotoxin binders on microarray, profiling panel, artefact control for SMM control protein annotation, biochemical, small-molecule microarray, Alexa647 label, 635/667 nm fluorescence (AID 1117)
condition context: alpha-BTX-A647 binding fluorescence, higher = more signal

# molecule, composite z-score
data = [
    ("COC(=O)C=C(CC(O)c1cccc(Cl)c1)OC (centres undefined)", 1.51),
    ("CN(C)CCCCCCNC(=O)[C@@H]1C[C@@H]2C(=O)N[C@@H](CCCCN)C(=O)N2[C@@H]1c1cccc(OCCO)c1", 2),
    ("O=C1OCCC/C=C\\[C@H]2OC34C=CCN(Cn5nnc6ccccc65)C(=O)[C@H]3N(CCO)C(=O)[C@@H]4C12 (some centres undefined)", -0.601),
    ("CC(C)C[C@@H]1NC(=O)[C@H]2C[C@@H](C(=O)NCCCCCCN(C)C)[C@@H](c3ccc(O)cc3)N2C1=O", 0.419),
    ("COCCOC(=O)N1C(=O)[C@@]2(c3cc(C#CC4=CCCCC4)ccc31)[C@H](C(=O)Nc1nc3ccccc3s1)[C@H]1C(=O)O[C@H](c3ccccc3)[C@H](c3ccccc3)N1[C@@H]2c1ccccc1OCCO", 0.858),
    ("C=CCOC(=O)[C@@H]1[C@H]2C(=O)O[C@H](c3ccccc3)[C@H](c3ccccc3)N2[C@H](c2ccc(OCCOC(=O)[C@@H]3C[C@@H]4C(=O)N5CCC[C@H]5C(=O)N4[C@@H]3c3ccc(O)cc3)cc2)[C@@]12C(=O)Nc1ccc(I)cc12", 0.327),
    ("O=C(NCc1ccccc1)[C@@H]1c2ccccc2C(=O)N(CC23CC4CC(CC(C4)C2)C3)[C@H]1c1ccc(CO)cc1", 0.645),
    ("O=C1C2C=CC(C(O)C(c3ccccc3)c3ccccc3)N(n3cnnc3)C2C(=O)N1Cc1ccccc1 (centres undefined)", 0.652),
    ("COc1ccc(C(=O)Nc2cccc(CN3C(=O)[C@]4(O[C@H](CCO)[C@@H]([Si](C)(C)c5ccc(OC)cc5)[C@@H]4C)c4ccccc43)c2)cc1", 0.805),
    ("Cc1ccc(S[C@]2(C(=O)NC(C)C)CC(=O)N(Cc3ccccc3Cl)[C@@H]2c2ccc(CO)cc2I)cc1", 1.33),
    ("C=CCNC(=O)[C@@H]1[C@H]2C(=O)O[C@H](c3ccccc3)[C@H](c3ccccc3)N2[C@H](c2ccc(OCCO)cc2)[C@@]12C(=O)Nc1ccc(C#CCCO)cc12", 1.68),
    ("[N-]=[N+]=NCc1ccccc1C[C@]1(C(=O)N2CCOCC2)N=C(c2ccc(OCCCO)cc2)O[C@H]1c1ccccc1N=[N+]=[N-]", 1.14),
    ("COc1ccc(NN2C(C(O)c3ccc([N+](=O)[O-])cc3)C=CC3C(=O)N(C4CCCCC4)C(=O)C32)cc1 (centres undefined)", 0.799),
    ("Cc1ccc(S[C@]2(C(=O)NCC(C)C)CC(=O)N(Cc3cc(C(F)(F)F)cc(C(F)(F)F)c3)[C@@H]2c2ccc(CO)cc2I)cc1", -1.05),
]

From: PubChem BioAssay
